Every entry's value here was drawn from patent US20260297042A1.

- test system: WEE1 (Homo sapiens, UniProt P30291)
- Construct: purchased Thermo Fisher PR7373A
- Sequence (P30291 whole entry): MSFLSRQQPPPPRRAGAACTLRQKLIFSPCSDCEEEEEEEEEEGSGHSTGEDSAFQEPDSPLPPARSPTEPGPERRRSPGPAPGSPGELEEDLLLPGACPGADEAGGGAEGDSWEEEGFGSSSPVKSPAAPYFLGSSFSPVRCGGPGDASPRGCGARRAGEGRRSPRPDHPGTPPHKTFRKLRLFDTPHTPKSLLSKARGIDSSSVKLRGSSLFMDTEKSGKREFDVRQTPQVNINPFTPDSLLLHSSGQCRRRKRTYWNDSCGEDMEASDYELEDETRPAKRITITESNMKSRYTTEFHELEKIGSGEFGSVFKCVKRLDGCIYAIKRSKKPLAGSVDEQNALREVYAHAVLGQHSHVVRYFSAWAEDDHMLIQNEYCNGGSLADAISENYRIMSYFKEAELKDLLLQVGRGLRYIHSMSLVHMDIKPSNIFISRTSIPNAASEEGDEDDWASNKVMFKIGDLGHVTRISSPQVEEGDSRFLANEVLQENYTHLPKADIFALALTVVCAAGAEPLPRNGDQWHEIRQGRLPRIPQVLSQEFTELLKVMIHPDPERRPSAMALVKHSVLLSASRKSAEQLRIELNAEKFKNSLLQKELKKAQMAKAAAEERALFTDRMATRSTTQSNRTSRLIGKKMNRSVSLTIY
- assay comment: Selectivity versus WEE1 assay (ADP-Glo enzymatic assay)
- Format: biochemical
- condition set: fold difference in selectivity for PKMYT1 over WEE1; banded; ">N" = at least in this band but could be higher
- Experimental: Selectivity versus WEE1 assay: Selectivity was established using the same format as outlined for PKMYT1. […] After 60 minutes the luminescence signal was read on a PHERAStar FS microplate reader (BMG Labtech). Data analysis: Data was captured and analysed within the Dotmatics Studies software module where dose response curves were generated and IC50 values determined. […]
readout name: PKMYT1 vs. WEE1 selectivity

Consider the following illustrative entries.
[[record]]
compound = "Cc1ccc(O)c(C)c1NC(=O)c1cnc(Nc2ccn([C@H]3CCN(C(=O)OC(C)(C)C)C3)n2)s1 [BAA-042]"
value_measured = ">X (100-<1000 fold)"

[[record]]
compound = "Cc1ccc(O)c(C)c1NC(=O)c1cnc(Nc2cc(CO)n(C)n2)s1 [BAA-251]"
value_measured = "X (100-<1000 fold)"

[[record]]
compound = "Cc1ccc(O)c(C)c1NC(=O)c1cnc(Nc2cccc(N(C)C(=O)c3c(F)cc(F)cc3F)n2)s1 [BAA-325]"
value_measured = "Y (1000-5000 fold)"

[[record]]
compound = "Cc1ccc(O)c(C)c1NC(=O)c1cnc(Nc2ccn(CC(=O)N3CC[C@@H](O)C3)n2)s1 [BAA-139]"
value_measured = "Y (1000-5000 fold)"

[[record]]
compound = "Cc1ccc(O)c(C)c1NC(=O)c1cnc(Nc2cc(C(C)(C)C)nn2-c2ccccc2)s1 [BAA-359]"
value_measured = "W (10-<100 fold)"

[[record]]
compound = "Cc1ccc(O)c(C)c1NC(=O)c1cnc(Nc2cc(C(F)(F)F)nn2C)s1 [BAA-046]"
value_measured = ">X (100-<1000 fold)"

[[record]]
compound = "Cc1ccc(O)c(C)c1NC(=O)c1cnc(Nc2ccn(CC(C)(C)O)n2)s1 [BAA-038]"
value_measured = "X (100-<1000 fold)"


Lab note: next compound to report on.
Ask: Name the recorded PKMYT1 vs. WEE1 selectivity of the item Cc1cn(-c2ccncc2)nc1Nc1ncc(C(=O)Nc2c(C)ccc(O)c2C)s1 [BAA-372] in your answer.
Result: W (10-<100 fold)

----------
# Lookup of reported IC50 keyed by entry
- test system: Human PKMYT1 (Homo sapiens, UniProt Q99640)
- Construct: Human PKMYT1 75-362 was cloned as a TEV cleavable 6xHis fusion; 6xHis (TEV cleavable) (cleaved yes); made in house; host or cells: bacterial cells
- Sequence (Q99640 75-362): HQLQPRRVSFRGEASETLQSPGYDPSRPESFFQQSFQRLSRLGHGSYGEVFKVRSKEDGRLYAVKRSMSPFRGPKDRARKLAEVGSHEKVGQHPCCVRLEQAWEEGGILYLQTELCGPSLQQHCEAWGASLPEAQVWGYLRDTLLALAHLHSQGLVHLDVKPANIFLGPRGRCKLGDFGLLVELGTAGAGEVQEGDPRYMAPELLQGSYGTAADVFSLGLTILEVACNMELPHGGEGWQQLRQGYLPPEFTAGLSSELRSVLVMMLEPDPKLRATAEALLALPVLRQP
- assay comment: PKMYT1 biochemical ADP-Glo enzymatic assay
- condition set: ADP-Glo; 15 nM PKMYT1 kinase domain, 500 µM ATP, 60 minutes at 26° C.; banded

Ask: Answer with reported IC50 of COc1ccc(CC(=O)N2CCC(CNc3ncc(C(=O)Nc4c(C)ccc(O)c4C)s3)CC2)nc1 [BAA-100]
Result: 50 to 1000 nM
